// MIC lookup, one value per entry
- Test system: Escherichia coli W-677/JR 66
- assay remarks: MIC (Table 2)
- test context: W677/JR66, read-out: Minimum Inhibitory Concentration (MIC)
Write the number in µg/mL without appending the unit.

- compound: "NC[C@H]1O[C@H](O[C@H]2[C@H](O)[C@@H](O[C@H]3O[C@H](CO)[C@@H](O)[C@H](N)[C@H]3O)[C@H](N)C[C@@H]2N)[C@H](N)C[C@@H]1O [TOB, tobramycin]"
  MIC [µg/mL]: 25
- compound: "NC[C@H]1O[C@H](O[C@H]2[C@H](O)[C@@H](O[C@H]3O[C@H](CO)[C@@H](O)[C@H](N)[C@H]3O)[C@H](NC(=O)C3(O)CNC3)C[C@@H]2N)[C@H](O)[C@@H](O)[C@@H]1O [Comp. (2)]"
  MIC [µg/mL]: 6.25

Then this compound:
Dear colleague, I am looking for the recorded MIC of the following compound: NC[C@H]1O[C@H](O[C@H]2[C@H](O)[C@@H](O[C@H]3O[C@H](CO)[C@@H](O)[C@H](N)[C@H]3O)[C@H](NC(=O)C3(O)CNC3)C[C@@H]2N)[C@H](N)C[C@@H]1O [Comp. (1)] 3.13

---

Here's a batch of compounds along with measured MIC for Enterobacter cloacae CI-38.

Dear colleague, I am looking for the recorded MIC of the following compound: `NC[C@H]1O[C@H](O[C@H]2[C@H](O)[C@@H](O[C@H]3O[C@H](CO)[C@@H](O)[C@H](N)[C@H]3O)[C@H](NC(=O)C3(O)CNC3)C[C@@H]2N)[C@H](O)[C@@H](O)[C@@H]1O` 3.13 mg/L

Dear colleague, I am looking for the recorded MIC of the following compound: `NC[C@H]1O[C@H](O[C@H]2[C@H](O)[C@@H](O[C@H]3O[C@H](CO)[C@@H](O)[C@H](N)[C@H]3O)[C@H](NC(=O)C3(O)CNC3)C[C@@H]2N)[C@H](N)C[C@@H]1O` 0.78 mg/L

Dear colleague, I am looking for the recorded MIC of the following compound: `NC[C@H]1O[C@H](O[C@H]2[C@H](O)[C@@H](O[C@H]3O[C@H](CO)[C@@H](O)[C@H](N)[C@H]3O)[C@H](N)C[C@@H]2N)[C@H](O)[C@@H](O)[C@@H]1O` > 100 mg/L

Dear colleague, I am looking for the recorded MIC of the following compound: `NC[C@H]1O[C@H](O[C@H]2[C@H](O)[C@@H](O[C@H]3O[C@H](CO)[C@@H](O)[C@H](N)[C@H]3O)[C@H](N)C[C@@H]2N)[C@H](N)C[C@@H]1O` 0.78 mg/L

---

- System: Escherichia coli W-677/JR 214
- assay remarks: MIC (Table 2)
- test context: W677/JR214, read-out: Minimum Inhibitory Concentration (MIC)
measure name: MIC

Look over these answered cases.
- compound: "NC[C@H]1O[C@H](O[C@H]2[C@H](O)[C@@H](O[C@H]3O[C@H](CO)[C@@H](O)[C@H](N)[C@H]3O)[C@H](N)C[C@@H]2N)[C@H](N)C[C@@H]1O [TOB, tobramycin]"
  MIC: "100 mg/L"
- compound: "NC[C@H]1O[C@H](O[C@H]2[C@H](O)[C@@H](O[C@H]3O[C@H](CO)[C@@H](O)[C@H](N)[C@H]3O)[C@H](NC(=O)C3(O)CNC3)C[C@@H]2N)[C@H](N)C[C@@H]1O [Comp. (1)]"
  MIC: "3.13 mg/L"
- compound: "NC[C@H]1O[C@H](O[C@H]2[C@H](O)[C@@H](O[C@H]3O[C@H](CO)[C@@H](O)[C@H](N)[C@H]3O)[C@H](N)C[C@@H]2N)[C@H](O)[C@@H](O)[C@@H]1O [KM-A, kanamycin A]"
  MIC: "> 100 mg/L"

Then this compound:
Dear colleague, I am looking for the recorded MIC of the following compound: NC[C@H]1O[C@H](O[C@H]2[C@H](O)[C@@H](O[C@H]3O[C@H](CO)[C@@H](O)[C@H](N)[C@H]3O)[C@H](NC(=O)C3(O)CNC3)C[C@@H]2N)[C@H](O)[C@@H](O)[C@@H]1O [Comp. (2)] 3.13 mg/L

---

- System: Proteus inconstans In-27
- assay remarks: MIC (Table 2)
- Type: cell-based
- test context: Providencia alcalifaciens, IN27, tobramycin resistant strain, read-out: Minimum Inhibitory Concentration (MIC)
measure name: MIC (mg/L)
Write the number in mg/L without appending the unit.

Look over these answered cases.
- query smiles: "NC[C@H]1O[C@H](O[C@H]2[C@H](O)[C@@H](O[C@H]3O[C@H](CO)[C@@H](O)[C@H](N)[C@H]3O)[C@H](N)C[C@@H]2N)[C@H](N)C[C@@H]1O"
  MIC, mg/L: 12.5
- query smiles: "NC[C@H]1O[C@H](O[C@H]2[C@H](O)[C@@H](O[C@H]3O[C@H](CO)[C@@H](O)[C@H](N)[C@H]3O)[C@H](NC(=O)C3(O)CNC3)C[C@@H]2N)[C@H](N)C[C@@H]1O"
  MIC, mg/L: 12.5

Dear colleague, I am looking for the recorded MIC of the following compound: `NC[C@H]1O[C@H](O[C@H]2[C@H](O)[C@@H](O[C@H]3O[C@H](CO)[C@@H](O)[C@H](N)[C@H]3O)[C@H](NC(=O)C3(O)CNC3)C[C@@H]2N)[C@H](O)[C@@H](O)[C@@H]1O` 6.25

---

- System: Pseudomonas aeruginosa PP-6
- assay remarks: MIC (Table 2)
- test context: PP6, read-out: Minimum Inhibitory Concentration (MIC)
measure name: MIC (µg/mL)
Write the number in µg/mL without appending the unit.

- query smiles: "NC[C@H]1O[C@H](O[C@H]2[C@H](O)[C@@H](O[C@H]3O[C@H](CO)[C@@H](O)[C@H](N)[C@H]3O)[C@H](NC(=O)C3(O)CNC3)C[C@@H]2N)[C@H](O)[C@@H](O)[C@@H]1O"
  measure name: "MIC"
  quantitative readout: 6.25

Then this molecule:
Request body: readout MIC, system Pseudomonas aeruginosa PP-6, query `NC[C@H]1O[C@H](O[C@H]2[C@H](O)[C@@H](O[C@H]3O[C@H](CO)[C@@H](O)[C@H](N)[C@H]3O)[C@H](NC(=O)C3(O)CNC3)C[C@@H]2N)[C@H](N)C[C@@H]1O` . Return the value. 3.13

---

Here's a batch of compounds along with measured MIC for Proteus mirabilis Pm-5.
Write the number in µg/mL without appending the unit.

Look over these answered cases.
- compound: "NC[C@H]1O[C@H](O[C@H]2[C@H](O)[C@@H](O[C@H]3O[C@H](CO)[C@@H](O)[C@H](N)[C@H]3O)[C@H](N)C[C@@H]2N)[C@H](N)C[C@@H]1O [TOB, tobramycin]"
  MIC, µg/mL: 12.5
- compound: "NC[C@H]1O[C@H](O[C@H]2[C@H](O)[C@@H](O[C@H]3O[C@H](CO)[C@@H](O)[C@H](N)[C@H]3O)[C@H](NC(=O)C3(O)CNC3)C[C@@H]2N)[C@H](N)C[C@@H]1O [Comp. (1)]"
  MIC, µg/mL: 1.56

Then this compound:
Dear colleague, I am looking for the recorded MIC of the following compound: NC[C@H]1O[C@H](O[C@H]2[C@H](O)[C@@H](O[C@H]3O[C@H](CO)[C@@H](O)[C@H](N)[C@H]3O)[C@H](NC(=O)C3(O)CNC3)C[C@@H]2N)[C@H](O)[C@@H](O)[C@@H]1O [Comp. (2)] 6.25
